Test system: Clostridium difficile clinical isolate growth, OD600, 24 h
assayMethodText: growth modulation of Clostridium difficile isolate – OD600, 9-point, retest, dose response (AID 1224920);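 note: inhibitors lower culture turbidity so OD600 falls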
propertyMeasured: IC50

For orientation, consider the following solved cases.
compound	IC50
COc1cccc(C#Cc2ccc3c(c2)[C@@H]2[C@@H](CCN2C(=O)c2ccccc2F)[C@@H](CO)N3C)c1	27.7 µM
Cc1ccccc1-c1ccc(C2[C@H]3CNC[C@@H]2N3S(=O)(=O)c2ccccc2C)cc1 (stereo partly drawn)	31.8 µM

Proceed to the following item.
IC50 lookup needed for "O=C(C[C@@H]1CC[C@H]2[C@@H](COC[C@@H](O)CN2C(=O)Nc2ccc(Cl)c(Cl)c2)O1)NC1CCC1" , thanks.
8 µM

* * *

Tested on: Clostridium difficile clinical isolate growth, OD600, 24 h
assayMethodText: growth modulation of Clostridium difficile isolate – OD600, 9-point, retest, dose response (AID 1224920);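 note: inhibitors lower culture turbidity so OD600 falls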
Reported IC50 values are given for each entry in this list.

molecule	studySystem	IC50
O=C(Nc1cccc(F)c1)N1C[C@@H]2N[C@H](C1)C2c1ccc(-c2ccc(F)cc2)cc1 (some centres undefined)	Clostridium difficile clinical isolate growth, OD600, 24 h	51.8 µM

// returns reported IC50 for input Cc1cccc(-c2ccc(C3[C@@H]4CN(C(=O)C5CCCC5)C[C@H]3N4)cc2)c1 (some centres undefined)
62.9 µM

Input "O=C(Nc1ccc(F)cc1)N1CCCCN2[C@@H](CO)[C@@H](c3ccc(-c4ccccc4F)cc3)[C@@H]2C1"
35 µM

Query "Cc1cccc(S(=O)(=O)N2CCCCN3[C@H](CO)[C@H](c4ccc(C#CC5CC5)cc4)[C@H]3C2)c1" next
27.9 µM

* * *

Test system: Clostridium difficile clinical isolate growth, OD600, 24 h
assayMethodText: growth modulation of Clostridium difficile isolate – OD600, 9-point, retest, dose response (AID 1224920);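 note: inhibitors lower culture turbidity so OD600 falls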
propertyMeasured: IC50

Solved cases below.
compound	studySystem	recordedResult
COc1ccc(NC(=O)N2CCCCN3[C@H](CO)[C@@H](c4ccc(C#Cc5ccccc5)cc4)[C@H]3C2)cc1	Clostridium difficile clinical isolate growth, OD600, 24 h	25.7 µM
COc1ccc(NC(=O)N2CCCCN3[C@@H](CO)[C@@H](c4ccc(C#Cc5ccccc5)cc4)[C@@H]3C2)cc1	Clostridium difficile clinical isolate growth, OD600, 24 h	16.2 µM
OC[C@H]1[C@H](c2ccc(C#CC3CCCC3)cc2)[C@H]2CN(CCC(F)(F)F)CCCCN21	Clostridium difficile clinical isolate growth, OD600, 24 h	16.8 µM

What value of IC50 has been reported for the following compound? "OC[C@@H]1[C@H](c2ccc(/C=C/c3ccccc3)cc2)[C@H]2CN(CCC(F)(F)F)CCCCN12"
28.7 µM

Also, "Cc1cccc(-c2ccc([C@@H]3[C@H]4CN(CCC(F)(F)F)CCCCN4[C@H]3CO)cc2)c1" please.
66.4 µM

Same read-out for "O=C(C[C@@H]1CC[C@@H]2[C@H](COC[C@@H](O)CN2C(=O)Nc2ccc(C(F)(F)F)cc2)O1)NC1Cc2ccccc2C1" ?
6.53 µM

Query "COc1ccccc1C#Cc1ccc2c(c1)[C@H]1[C@H](CCN1C(=O)c1ccc(F)cc1)[C@@H](CO)N2" next
< 0.5 µM

* * *

Tested on: Clostridium difficile clinical isolate growth, OD600, 24 h
assayMethodText: growth modulation of Clostridium difficile isolate – OD600, 9-point, retest, dose response (AID 1224920);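 note: inhibitors lower culture turbidity so OD600 falls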
propertyMeasured: IC50

compound	recordedResult
Cc1ccc(-c2ccc([C@@H]3[C@H](CO)N4CCCCN(C(=O)c5ccc(F)cc5)C[C@@H]34)cc2)cc1	24.3 µM

Query (compound): Cc1ccccc1S(=O)(=O)N1C[C@@H]2N[C@H](C1)C2c1ccc(-c2cccc(C#N)c2)cc1 (stereo partly drawn) ; field requested: IC50
91.2 µM

Okay, and "CCCNC(=O)C[C@@H]1CC[C@@H]2[C@H](COC[C@H](O)CN2C(=O)Nc2ccc(Cl)c(Cl)c2)O1" ?
12 µM

Also, "O=C(Nc1ccccc1)N1CCCCN2[C@@H](CO)[C@@H](c3ccc(-c4ccccc4F)cc3)[C@@H]2C1" please.
27.9 µM

Same again, this time with "Cc1ccc(-c2ccc([C@@H]3[C@H](CO)N4CCCCN(C(=O)Nc5cccc(F)c5)C[C@@H]34)cc2)cc1"
6.52 µM

Likewise for "OC[C@H]1Nc2ccc(-c3ccccc3)cc2[C@@H]2[C@H]1CCN2Cc1ccccc1F" ?
129 µM

Continue with O=C(Nc1ccccc1)N1C[C@@H]2N[C@H](C1)C2c1ccc(-c2ccccc2)cc1 (stereo partly drawn)
59.7 µM

Same read-out for "O=C(Nc1ccc(F)cc1)N1CCCCN2[C@H](CO)[C@H](c3ccc(-c4cccc(F)c4)cc3)[C@H]2C1" ?
70.3 µM

Quick one: COc1cccc(S(=O)(=O)N2C[C@@H]3N[C@H](C2)C3c2ccc(-c3ccccc3C)cc2)c1 (stereo partly drawn)
28.6 µM

* * *

Parameter: pIC50. Scope: all listed entries.
Test system: Clostridium difficile clinical isolate growth, OD600, 24 h
assayMethodText: growth modulation of Clostridium difficile isolate – OD600, 9-point, retest, dose response (AID 1224920);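 note: inhibitors lower culture turbidity so OD600 falls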
Entry type: numeric. Quantity: pIC50, the -log10 of concentration in molar units.

compound	studySystem	propertyMeasured	recordedResult
COc1ccc(-c2ccc(C3[C@@H]4CN(Cc5ccccn5)C[C@H]3N4)cc2)cc1 (stereo partly specified)	Clostridium difficile clinical isolate growth, OD600, 24 h	pIC50	4.15
COc1ccc(C#Cc2ccc([C@H]3[C@@H](CO)N4CCCCN(Cc5ccccc5F)C[C@H]34)cc2)cc1	Clostridium difficile clinical isolate growth, OD600, 24 h	pIC50	5.31
Cc1ccccc1-c1ccc(C2[C@@H]3CN(S(=O)(=O)c4ccccc4)C[C@H]2N3)cc1 (stereo partly specified)	Clostridium difficile clinical isolate growth, OD600, 24 h	pIC50	4.25
N#Cc1ccc(-c2ccc3c(c2)[C@H]2[C@H](CCN2Cc2ccc4c(c2)OCO4)[C@H](CO)N3)cc1	Clostridium difficile clinical isolate growth, OD600, 24 h	pIC50	4.63
Cc1cccc(-c2ccc(C3[C@@H]4CN(C(=O)C5CCCCC5)C[C@H]3N4)cc2)c1 (stereo partly specified)	Clostridium difficile clinical isolate growth, OD600, 24 h	pIC50	4.57

Next item in the queue.
pIC50 lookup needed for COc1ccccc1NC(=O)N1C[C@@H]2N[C@H](C1)C2c1ccc(/C=C/c2ccccc2)cc1 (stereo partly specified) , thanks.
4.97

* * *

Test system: Clostridium difficile clinical isolate growth, OD600, 24 h
assayMethodText: growth modulation of Clostridium difficile isolate – OD600, 9-point, retest, dose response (AID 1224920);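 note: inhibitors lower culture turbidity so OD600 falls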
Activity calls are given as the source filed them.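 The calls were made as follows: active = IC50 no higher than ten times the top tested dose; inconclusive = flat fit with 30 to 70% inhibition, or poor fit; inactive = IC50 above ten times the top dose.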
propertyMeasured: IC50

Guide cases for IC50, answers given:
molecule	IC50
Fc1cccc(-c2ccc(C3[C@H]4CNC[C@@H]3N4Cc3ccccc3F)cc2)c1 (some centres undefined)	60.5 µM
O=C(c1ccc2c(c1)OCO2)N1C[C@@H]2N[C@H](C1)C2c1ccc(/C=C/c2ccccc2)cc1 (some centres undefined)	12.4 µM
Cc1ccccc1-c1ccc(C2[C@@H]3CN(C(=O)Nc4ccc(F)cc4)C[C@H]2N3)cc1 (some centres undefined)	40.5 µM

Read the next record carefully.
Query for Clostridium difficile clinical isolate growth, OD600, 24 h: what IC50 does the record show for "O=C(c1cnccn1)N1CC(=O)N2[C@H](C1)[C@@H](c1ccc(C#CCc3ccccc3)cc1)[C@@H]2CO" ?
> 240 µM (inactive)

* * *

Recorded measurements of pIC50, one per entry
Tested on: Clostridium difficile clinical isolate growth, OD600, 24 h
assayMethodText: growth modulation of Clostridium difficile isolate – OD600, 9-point, retest, dose response (AID 1224920);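 note: inhibitors lower culture turbidity so OD600 falls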
In simple prose, pIC50 is minus the logarithm base ten of a concentration in moles per litre.

compound	pIC50
CCCC#Cc1ccc([C@@H]2[C@H](CO)N3CCCCN(S(=O)(=O)c4ccccc4C)C[C@@H]23)cc1	4.62
O=C(Nc1ccc(C(F)(F)F)cc1)N1C[C@@H]2N[C@H](C1)C2c1ccc(-c2cccnc2)cc1 (some centres undefined)	4.82
COc1ccccc1S(=O)(=O)N1C[C@@H]2N[C@H](C1)C2c1ccc(-c2cccc(C)c2)cc1 (some centres undefined)	4.27

Next, consider the following compound.
// returns reported pIC50 for input Fc1ccc(CN2[C@@H]3CNC[C@H]2C3c2ccc(-c3ccccc3)cc2)cc1 (some centres undefined)
4.54
